- System: MOLT-4 leukemia
- PROTOCOL DESCRIPTION: NCI-60 one-dose screen, 48 h (100 = growth as untreated, 0 = no growth, -100 = all killed)
- SETUP CONDITIONS: 10 µM unless noted
The panel holds about 83,000 compounds, 20% with a hit somewhere; the sample as a whole holds those more often.

{"COMPOUND": "COc1c(B(O)O)cc(C)cc1-c1nc2ccc3[nH]ncc3c2c2c1CCCC2", "TEST SYSTEM": "MOLT-4 leukemia", "growth, %": 19.7}
{"COMPOUND": "CC1=NN(c2ccc(S(=O)(=O)O)cc2)C(=O)C1N=Nc1ccc(-c2ccc(N=Nc3ccc(OS(=O)(=O)c4ccc(C)cc4)cc3)c(S(=O)(=O)O)c2)cc1 (stereo unspecified)", "TEST SYSTEM": "MOLT-4 leukemia", "growth, %": 84.3}
{"COMPOUND": "COc1cc(/C=C/c2ccccc2)cc(OC)c1", "TEST SYSTEM": "MOLT-4 leukemia", "growth, %": 89.3}
{"COMPOUND": "Nc1ccccc1-c1cc2c(c3c1[nH]c1ccccc13)CCCCC2", "TEST SYSTEM": "MOLT-4 leukemia", "growth, %": 90.8}
{"COMPOUND": "O=C(O)CCC(=O)Nc1nnc(-c2ccccc2)s1", "TEST SYSTEM": "MOLT-4 leukemia", "growth, %": 111}
{"COMPOUND": "CCCC1CCC(O)(C(C)(O)C(=O)NC2C(=O)N3NCCCC3C(=O)N(O)C(C)C(=O)N3NCCCC3C(=O)N3NCC(O)CC3C(=O)NC(C)C(=O)OC2C(C)C)OC1CC (stereo unspecified)", "TEST SYSTEM": "MOLT-4 leukemia", "growth, %": -82.7}
